The values you see were collected from patent US6756359B2.

Here, each record is paired with measured MIC data.
# Tested on: S. pneumoniae Stpn_Erm 6849
# assay method text: Antibacterial activity in vitro, MIC by broth microdilution
# Format: cell-based, Streptococcus pneumoniae
# experimental conditions: Table 5, Strain ID I: S. pneumoniae Stpn_Erm 6849; unit assumed
measured attribute: MIC (µg/mL)

{"compound": "CC[C@H]1OC(=O)[C@H](C)C(=O)[C@H](C)[C@@H](OC2O[C@H](C)C[C@H](N(C)C)[C@H]2O)[C@@](C)(OC)C[C@@H](C)C(=O)[C@H](C)[C@H]2N(CCCCn3cnc(-c4cncnc4)c3)C(=O)O[C@]12CC (stereo partly drawn) [Example 25]", "observed value": 0.1}
{"compound": "C/C=C\\[C@]12OC(=O)N(CCCCn3cnc(-c4cccnc4)c3)[C@@H]1[C@@H](C)C(=O)[C@H](C)C[C@](C)(OC)[C@H](O[C@@H]1O[C@H](C)C[C@H](N(C)C)[C@H]1O)[C@@H](C)C(=O)[C@](C)(F)C(=O)O[C@@H]2CC [Example 66]", "observed value": 0.2}
{"compound": "CC[C@H]1OC(=O)[C@@](C)(F)C(=O)[C@H](C)[C@@H](OC2O[C@H](C)C[C@H](N(C)C)[C@H]2O)[C@@](C)(OC)C[C@@H](C)C(=O)[C@H](C)[C@H]2N(CCCC(C)(C)n3cnc(-c4cccnc4)c3)C(=O)O[C@]12CC (stereo partly drawn) [Example 32]", "observed value": 0.2}
